molecular target: Nav 1.7 (Homo sapiens (Human), UniProt Q15858); test: Nav 1.7 in vitro PX assay (PatchXpress whole cell voltage clamp); type: cell-based; details: in-vitro Nav 1.7 PX (PatchXpress);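 also: holding potential set for 20 to 50% inactivation, sodium current evoked by a 20 ms step to −10 mV, peak current inhibition read after compound exposure, 3–5 cells per concentration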
Sequence (Q15858 whole entry): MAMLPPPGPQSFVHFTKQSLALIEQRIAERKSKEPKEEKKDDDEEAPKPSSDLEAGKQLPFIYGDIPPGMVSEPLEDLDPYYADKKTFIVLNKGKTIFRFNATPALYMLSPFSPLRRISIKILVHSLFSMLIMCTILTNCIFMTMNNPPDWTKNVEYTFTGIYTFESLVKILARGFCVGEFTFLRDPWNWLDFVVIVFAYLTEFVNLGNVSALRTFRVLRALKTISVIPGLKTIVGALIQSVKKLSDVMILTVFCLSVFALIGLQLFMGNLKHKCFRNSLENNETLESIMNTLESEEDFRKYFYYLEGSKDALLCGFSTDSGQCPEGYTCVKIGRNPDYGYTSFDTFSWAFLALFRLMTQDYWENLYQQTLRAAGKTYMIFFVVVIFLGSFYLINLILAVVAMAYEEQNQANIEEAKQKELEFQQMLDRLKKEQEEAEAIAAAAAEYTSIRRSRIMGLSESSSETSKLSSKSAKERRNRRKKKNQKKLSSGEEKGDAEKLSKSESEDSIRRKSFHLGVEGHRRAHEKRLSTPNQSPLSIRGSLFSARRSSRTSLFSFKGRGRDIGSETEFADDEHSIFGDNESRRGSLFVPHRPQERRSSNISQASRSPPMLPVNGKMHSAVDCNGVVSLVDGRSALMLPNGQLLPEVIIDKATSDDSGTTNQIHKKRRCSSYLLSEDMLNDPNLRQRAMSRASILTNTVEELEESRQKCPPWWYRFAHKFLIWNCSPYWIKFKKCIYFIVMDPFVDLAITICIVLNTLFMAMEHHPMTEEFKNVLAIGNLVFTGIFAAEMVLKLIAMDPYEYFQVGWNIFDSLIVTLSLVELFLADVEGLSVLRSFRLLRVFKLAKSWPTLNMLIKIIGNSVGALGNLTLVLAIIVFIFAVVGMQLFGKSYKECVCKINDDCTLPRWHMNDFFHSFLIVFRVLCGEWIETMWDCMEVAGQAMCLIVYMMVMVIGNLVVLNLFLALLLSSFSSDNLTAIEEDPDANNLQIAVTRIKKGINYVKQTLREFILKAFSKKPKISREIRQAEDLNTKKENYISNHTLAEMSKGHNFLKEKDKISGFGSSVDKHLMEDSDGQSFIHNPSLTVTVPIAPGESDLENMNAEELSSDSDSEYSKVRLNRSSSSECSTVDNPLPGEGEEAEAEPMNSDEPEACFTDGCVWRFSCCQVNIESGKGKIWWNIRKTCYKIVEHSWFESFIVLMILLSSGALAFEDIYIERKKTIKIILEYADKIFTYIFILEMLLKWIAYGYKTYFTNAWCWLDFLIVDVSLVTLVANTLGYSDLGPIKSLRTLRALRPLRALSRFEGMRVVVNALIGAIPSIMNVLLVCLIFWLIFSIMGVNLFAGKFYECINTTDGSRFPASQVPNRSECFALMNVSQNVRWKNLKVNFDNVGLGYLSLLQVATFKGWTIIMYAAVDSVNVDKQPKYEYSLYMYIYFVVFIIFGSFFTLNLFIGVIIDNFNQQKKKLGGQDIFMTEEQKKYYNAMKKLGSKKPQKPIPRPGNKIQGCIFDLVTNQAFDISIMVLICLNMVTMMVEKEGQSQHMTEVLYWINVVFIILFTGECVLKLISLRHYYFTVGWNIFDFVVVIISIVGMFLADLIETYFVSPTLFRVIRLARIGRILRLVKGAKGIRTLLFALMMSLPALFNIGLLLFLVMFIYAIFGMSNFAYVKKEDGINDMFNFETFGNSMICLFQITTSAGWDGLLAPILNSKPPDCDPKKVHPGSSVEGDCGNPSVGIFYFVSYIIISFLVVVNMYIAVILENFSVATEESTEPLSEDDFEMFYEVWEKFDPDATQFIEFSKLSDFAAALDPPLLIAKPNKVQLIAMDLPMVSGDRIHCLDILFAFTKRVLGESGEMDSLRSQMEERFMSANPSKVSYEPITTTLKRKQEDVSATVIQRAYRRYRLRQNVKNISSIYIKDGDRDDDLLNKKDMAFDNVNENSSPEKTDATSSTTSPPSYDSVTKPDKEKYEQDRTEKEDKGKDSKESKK
pIC50: −log10 of the molar value.
MEASUREMENT_LABEL: pIC50

> print(dat)
                            compound.string  quantitative.result
1  COc1cc(-c2cc(C)cc(F)c2)c(F)cc1-c1ncnc2cc(S(=O)(=O)Nc3ccon3)ccc12                 7.49
2  COc1cc(-c2cc(C)cc(Cl)c2)c(C)cc1-c1nccc2cc(S(=O)(=O)Nc3ccon3)ccc12                 7.43
3  COc1cc(-c2ccc(Cl)c(C)c2)ccc1-c1nccc2cc(S(=O)(=O)Nc3ccon3)ccc12                 7.11
4  COc1cc(-c2cc(C)c(Cl)c(F)c2)c(F)cc1-c1ncnc2cc(S(=O)(=O)Nc3ccon3)ccc12                 7.23
5  COc1cc(-c2cc(C)ccc2F)c(C)cc1-c1ncnc2cc(S(=O)(=O)Nc3ccon3)ccc12                 6.95

a. COc1cc(-c2ccc(C)c(Cl)c2)c(C)cc1-c1nccc2cc(S(=O)(=O)Nc3ccon3)ccc12
b. COc1cc(-c2cc(Cl)ccc2F)c(C)cc1-c1ncnc2cc(S(=O)(=O)Nc3ccon3)ccc12
When the recorded pIC50 values are compared, which is smaller: that of a or that of b ? Select an item and report its label.
a
(a: 7.01, b: 7.25)
